- test_target: FGFR1 (Homo sapiens)
- Construct: made in house; host or cells: E. coli (BL21-derived), T7 phage
- Sequence (P11362 22-822): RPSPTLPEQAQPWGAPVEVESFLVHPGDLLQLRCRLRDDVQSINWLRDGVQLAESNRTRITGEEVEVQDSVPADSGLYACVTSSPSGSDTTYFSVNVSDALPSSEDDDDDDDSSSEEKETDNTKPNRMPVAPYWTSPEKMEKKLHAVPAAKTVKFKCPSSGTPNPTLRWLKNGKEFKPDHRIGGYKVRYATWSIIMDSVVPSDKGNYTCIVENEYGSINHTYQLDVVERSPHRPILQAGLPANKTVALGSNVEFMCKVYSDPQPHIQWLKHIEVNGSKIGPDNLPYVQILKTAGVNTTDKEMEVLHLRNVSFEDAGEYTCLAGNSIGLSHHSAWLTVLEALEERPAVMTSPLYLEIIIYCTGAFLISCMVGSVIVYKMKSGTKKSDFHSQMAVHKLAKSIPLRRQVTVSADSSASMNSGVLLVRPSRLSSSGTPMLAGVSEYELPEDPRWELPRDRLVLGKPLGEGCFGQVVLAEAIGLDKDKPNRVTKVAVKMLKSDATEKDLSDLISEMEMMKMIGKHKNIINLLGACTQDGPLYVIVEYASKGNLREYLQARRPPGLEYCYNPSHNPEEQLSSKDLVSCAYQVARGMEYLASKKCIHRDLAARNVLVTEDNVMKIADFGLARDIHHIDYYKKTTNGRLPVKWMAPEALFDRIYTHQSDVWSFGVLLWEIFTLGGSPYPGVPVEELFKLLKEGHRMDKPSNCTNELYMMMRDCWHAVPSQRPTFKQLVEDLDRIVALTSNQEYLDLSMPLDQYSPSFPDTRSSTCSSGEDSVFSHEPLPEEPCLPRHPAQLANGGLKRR
- method_summary: Kinase binding assay (kinase-tagged T7 phage, affinity beads, qPCR), Kd
- test_conditions: read-out: FGFR1 (Kd nM)
Kindly state Kd for each of the entries shown.

**Q:** # get_value(readout= Kd, system= FGFR1 (Homo sapiens)) for COc1cc2[nH]nc(-c3cnc(N4CC(C)(NCCC(F)F)C4)c(C#N)c3)c2cc1O[C@H](C)c1c(Cl)cncc1Cl
**A:** 1 to 50 nM

**Q:** Which measured Kd belongs to COc1cc2[nH]nc(-c3cc(C#N)c(N4CC(C)(NCC(C)C)C4)nn3)c2cc1O[C@H](C)c1c(Cl)cncc1Cl , tested on FGFR1 (Homo sapiens)?
**A:** 1 to 50 nM

**Q:** # query: Kd | item C[C@@H](Oc1ccc2[nH]nc(-c3cnc(N4C[C@@H](CS(C)(=O)=O)[C@@H]4C)c(F)c3)c2c1)c1c(Cl)cncc1Cl | system: FGFR1 (Homo sapiens)
**A:** 1 to 50 nM

---

- test_target: FGFR2 (Homo sapiens, UniProt P21802)
- Construct: made in house; host or cells: E. coli (BL21-derived), T7 phage
- Sequence (P21802 22-821): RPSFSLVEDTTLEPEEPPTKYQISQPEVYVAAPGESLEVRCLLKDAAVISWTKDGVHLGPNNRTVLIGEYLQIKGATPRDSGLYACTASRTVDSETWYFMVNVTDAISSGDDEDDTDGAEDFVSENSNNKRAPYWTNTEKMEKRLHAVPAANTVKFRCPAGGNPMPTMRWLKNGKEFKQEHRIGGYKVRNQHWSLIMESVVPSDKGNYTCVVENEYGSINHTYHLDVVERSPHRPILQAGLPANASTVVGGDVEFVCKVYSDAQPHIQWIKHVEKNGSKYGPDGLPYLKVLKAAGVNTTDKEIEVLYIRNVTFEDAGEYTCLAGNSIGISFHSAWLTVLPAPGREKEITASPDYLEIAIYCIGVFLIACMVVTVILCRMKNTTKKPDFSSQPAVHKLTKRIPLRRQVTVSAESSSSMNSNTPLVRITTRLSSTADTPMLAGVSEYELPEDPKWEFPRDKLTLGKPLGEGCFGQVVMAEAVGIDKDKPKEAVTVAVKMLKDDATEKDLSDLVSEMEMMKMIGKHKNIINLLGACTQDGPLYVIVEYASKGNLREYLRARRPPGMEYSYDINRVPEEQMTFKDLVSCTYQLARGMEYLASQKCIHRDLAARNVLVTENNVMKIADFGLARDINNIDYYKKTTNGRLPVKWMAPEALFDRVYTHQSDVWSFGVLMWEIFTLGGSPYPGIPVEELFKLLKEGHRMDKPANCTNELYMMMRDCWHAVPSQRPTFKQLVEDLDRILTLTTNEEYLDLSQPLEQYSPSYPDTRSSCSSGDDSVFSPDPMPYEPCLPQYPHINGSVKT
- method_summary: Kinase binding assay (kinase-tagged T7 phage, affinity beads, qPCR), Kd
- test_conditions: read-out: FGFR2 (Kd nM)
observable: Kd

**Q:** Which Kd is reported with FGFR2 (Homo sapiens, UniProt P21802) for this entry: C[C@@H](Oc1ccc2[nH]nc(-c3cnc(N4CC(C)(N5CCOCC5)C4)c(C#N)c3)c2c1)c1c(Cl)cncc1Cl ?
**A:** 50 to 300 nM

**Q:** Form field: Kd recorded for COc1cc2[nH]nc(-c3cnc(N4CC(C)(N5CCS(=O)(=O)CC5)C4)c(C#N)c3)c2cc1O[C@H](C)c1c(Cl)cncc1Cl with FGFR2 (Homo sapiens, UniProt P21802) (enter value)
**A:** 1 to 50 nM

**Q:** What value of Kd on FGFR2 (Homo sapiens, UniProt P21802) does C[C@H](O)CNC1(C)CN(c2ccc(-c3n[nH]c4ccc(O[C@H](C)c5c(Cl)cncc5Cl)cc34)cn2)C1 have?
**A:** 1 to 50 nM

**Q:** Give the reported Kd for CC(C)NC1(C)CN(c2ncc(-c3n[nH]c4ccc(O[C@H](C)c5c(Cl)cncc5Cl)cc34)cn2)C1 (system: FGFR2 (Homo sapiens, UniProt P21802)).
**A:** 1 to 50 nM

**Q:** Recall the recorded Kd for CCCNC1(C)CN(c2ncc(-c3n[nH]c4cc(OC)c(O[C@H](C)c5c(Cl)cncc5Cl)cc34)cc2C#N)C1 with FGFR2 (Homo sapiens, UniProt P21802) and state it.
**A:** 1 to 50 nM

**Q:** Quick check: Kd on FGFR2 (Homo sapiens, UniProt P21802), item COc1cc2[nH]nc(-c3cnc(N4CC(C)(NCC(F)F)C4)c(C#N)c3)c2cc1O[C@H](C)c1c(Cl)cncc1Cl ?
**A:** 1 to 50 nM

**Q:** Please provide the recorded Kd for COP(=O)(CC1(C)CN(c2ccc(-c3n[nH]c4ccc(O[C@H](C)c5c(Cl)cncc5Cl)cc34)cn2)C1)OC , tested on FGFR2 (Homo sapiens, UniProt P21802).
**A:** 1 to 50 nM

**Q:** Can you look up Kd on FGFR2 (Homo sapiens, UniProt P21802) for CC(C)CNC1(C)CN(c2ncc(-c3n[nH]c4ccc(O[C@H](C)c5c(Cl)cncc5Cl)cc34)cc2F)C1 ?
**A:** 1 to 50 nM

**Q:** I'm curious: which Kd was measured for C[C@@H](Oc1ccc2[nH]nc(-c3cnc(N4CC(C)(NCCS(C)(=O)=O)C4)c(C#N)c3)c2c1)c1c(Cl)cncc1Cl tested on FGFR2 (Homo sapiens, UniProt P21802)?
**A:** 1 to 50 nM

**Q:** Request - read-out Kd | tested on FGFR2 (Homo sapiens, UniProt P21802) | molecule C[C@@H](Oc1ccc2[nH]nc(-c3cnc(N4CC(C)(NC5CCC5)C4)c(C#N)c3)c2c1)c1c(Cl)cncc1Cl
**A:** 50 to 300 nM

**Q:** Fill in the recorded Kd for this molecule, with FGFR2 (Homo sapiens, UniProt P21802) as test system: C[C@@H](Oc1ccc2[nH]nc(-c3cnc(N4CC(C)(N5CCCC5)C4)c(F)c3)c2c1)c1c(Cl)cncc1Cl
**A:** 1 to 50 nM

**Q:** What reported Kd corresponds to C[C@@H](Oc1ccc2[nH]nc(-c3cnc(N4CC(C)(CN(C)S(C)(=O)=O)C4)c(C#N)c3)c2c1)c1c(Cl)cncc1Cl on FGFR2 (Homo sapiens, UniProt P21802)?
**A:** 1 to 50 nM

**Q:** Reported Kd for FGFR2 (Homo sapiens, UniProt P21802), given C[C@@H](Oc1ccc2[nH]nc(-c3cnc(N4CC(C)(N(C)C)C4)nc3)c2c1)c1c(Cl)cncc1Cl ?
**A:** 1 to 50 nM

**Q:** Quick check: Kd on FGFR2 (Homo sapiens, UniProt P21802), item C[C@@H](Oc1ccc2[nH]nc(-c3ccc(N4CC(C)(N5C[C@@H]6C[C@H]5CO6)C4)nc3)c2c1)c1c(Cl)cncc1Cl ?
**A:** 1 to 50 nM

**Q:** Kindly state the measured Kd obtained for CNC1(C)CN(c2ccc(-c3n[nH]c4cc(F)c(O[C@H](C)c5c(Cl)cncc5Cl)cc34)cn2)C1 with FGFR2 (Homo sapiens, UniProt P21802).
**A:** 1 to 50 nM

**Q:** Quick check: Kd on FGFR2 (Homo sapiens, UniProt P21802), item C[C@@H](Oc1ccc2[nH]nc(-c3ccc(N4C[C@@H](CS(C)(=O)=O)[C@@H]4C)nc3)c2c1)c1c(Cl)cncc1Cl ?
**A:** 1 to 50 nM

**Q:** Kd of CNC1(C)CN(c2ccc(-c3n[nH]c4ccc(O[C@H](C)c5c(Cl)cnc(C)c5Cl)cc34)cn2)C1 on FGFR2 (Homo sapiens, UniProt P21802)?
**A:** 1 to 50 nM

**Q:** What is its Kd for FGFR2 (Homo sapiens, UniProt P21802)? Entry: COc1cc2[nH]nc(-c3cnc(N4CC(N)(Cc5ccn(C)n5)C4)c(C#N)c3)c2cc1O[C@H](C)c1c(Cl)cncc1Cl
**A:** 1 to 50 nM

**Q:** Report Kd for CNC1(C)CN(c2ncc(-c3n[nH]c4ccc(O[C@H](C)c5c(Cl)cnc(C)c5Cl)cc34)cc2C#N)C1 tested on FGFR2 (Homo sapiens, UniProt P21802).
**A:** 50 to 300 nM

**Q:** Form entry - test system: FGFR2 (Homo sapiens, UniProt P21802); read-out: Kd; molecule: COc1cc2[nH]nc(-c3cnc(N4CC(C)(NC(C)C)C4)c(C#N)c3)c2cc1O[C@@H](C)c1c(Cl)cncc1Cl
**A:** 300 to 1000 nM

**Q:** Checklist item: Kd tested on FGFR2 (Homo sapiens, UniProt P21802), entry C[C@@H](Oc1ccc2[nH]nc(-c3ccc(N4CC(C)(CS(C)(=O)=O)C4)nc3)c2c1)c1c(Cl)cncc1Cl , value?
**A:** 1 to 50 nM

**Q:** Request body: readout Kd, system FGFR2 (Homo sapiens, UniProt P21802), query COc1cc2[nH]nc(-c3cnc(N4CC(C)(N5CC(C)(OC)C5)C4)c(C#N)c3)c2cc1O[C@H](C)c1c(Cl)cncc1Cl . Return the value.
**A:** 1 to 50 nM

**Q:** Find Kd (FGFR2 (Homo sapiens, UniProt P21802)) for the entry C[C@@H](Oc1cc2c(-c3cnc(N4CC(C)(N5CCC5)C4)c(F)c3)n[nH]c2cc1F)c1c(Cl)cncc1Cl
**A:** 1 to 50 nM

**Q:** Hi! What's the reported Kd for C[C@@H]1[C@@H](CS(C)(=O)=O)CN1c1ccc(-c2n[nH]c3ccc(O[C@H](C)c4c(Cl)cncc4Cl)cc23)cn1 on FGFR2 (Homo sapiens, UniProt P21802)?
**A:** 1 to 50 nM

**Q:** # get_value(readout= Kd, system= FGFR2 (Homo sapiens, UniProt P21802)) for C[C@@H](Oc1ccc2[nH]nc(-c3cnc(N4CC(C)(NCP(C)(C)=O)C4)c(F)c3)c2c1)c1c(Cl)cncc1Cl
**A:** 1 to 50 nM

**Q:** // map COc1cc2[nH]nc(-c3cnc(N4C[C@H](CS(C)(=O)=O)[C@H]4C)c(C#N)c3)c2cc1O[C@@H](C)c1c(Cl)cncc1Cl to recorded Kd (system: FGFR2 (Homo sapiens, UniProt P21802))
**A:** > 1000 nM
